Measured IC50 of individual entries
- Experimental System: human TLR7 (Homo sapiens, UniProt Q9NYK1)
- Sequence (Q9NYK1 27-1049): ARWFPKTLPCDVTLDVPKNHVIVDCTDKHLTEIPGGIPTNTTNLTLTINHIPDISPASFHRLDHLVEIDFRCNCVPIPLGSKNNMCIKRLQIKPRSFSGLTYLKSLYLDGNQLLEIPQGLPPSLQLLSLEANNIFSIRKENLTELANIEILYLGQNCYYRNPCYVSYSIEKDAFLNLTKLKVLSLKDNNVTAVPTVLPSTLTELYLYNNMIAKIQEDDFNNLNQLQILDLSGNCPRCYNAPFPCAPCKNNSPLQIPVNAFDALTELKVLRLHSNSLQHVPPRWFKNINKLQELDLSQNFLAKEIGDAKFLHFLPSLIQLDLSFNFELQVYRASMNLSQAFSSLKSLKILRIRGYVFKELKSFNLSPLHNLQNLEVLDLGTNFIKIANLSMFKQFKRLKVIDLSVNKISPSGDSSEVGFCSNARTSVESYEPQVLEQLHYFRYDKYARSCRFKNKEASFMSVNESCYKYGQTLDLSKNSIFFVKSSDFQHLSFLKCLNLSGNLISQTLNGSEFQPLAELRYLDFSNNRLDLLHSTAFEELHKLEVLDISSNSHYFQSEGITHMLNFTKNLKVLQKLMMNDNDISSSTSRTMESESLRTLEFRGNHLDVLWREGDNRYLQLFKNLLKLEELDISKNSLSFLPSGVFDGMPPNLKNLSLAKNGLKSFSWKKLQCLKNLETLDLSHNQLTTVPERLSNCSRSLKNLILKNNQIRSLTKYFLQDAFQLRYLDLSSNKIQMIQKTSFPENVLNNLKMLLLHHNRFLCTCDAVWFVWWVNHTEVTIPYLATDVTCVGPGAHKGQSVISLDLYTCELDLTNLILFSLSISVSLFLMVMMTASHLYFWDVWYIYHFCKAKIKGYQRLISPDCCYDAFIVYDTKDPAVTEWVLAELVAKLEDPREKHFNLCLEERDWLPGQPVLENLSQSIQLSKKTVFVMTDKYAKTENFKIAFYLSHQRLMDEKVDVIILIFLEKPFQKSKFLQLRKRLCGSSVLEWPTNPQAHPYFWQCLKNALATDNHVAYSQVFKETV
- Experiment Summary: TLR7 inhibition reporter assay (HEK-Blue cells, SEAP reporter, gardiquimod stimulation)
- Condition Parameters: HEK-Blue cells overexpressing human TLR7, SEAP reporter, gardiquimod 7.5 μM

{"columns": ["Compound", "IC50"],
 "data": [
  ["CCc1c(-c2ccnc3cnn(C)c23)[nH]c2ccc(C3CCNCC3)cc12", "0.1 to 1 µM"],
  ["Cc1cc2cc(-c3[nH]c4ccc(C5CCN(C(=O)CN(C)C)CC5)cc4c3C(C)C)cc(CC(C)C)n2n1", "> 3.13 µM"],
  ["CCc1c(-c2ccnc3[nH]nc(C)c23)[nH]c2ccc(C3CCN(Cc4cnc[nH]4)CC3)cc12", "< 0.1 µM"],
  ["Cc1cc(-c2[nH]c3ccc(C4CCN(CCCC(F)(F)F)CC4)cc3c2C(C)C)cn2nncc12", "0.1 to 1 µM"]
]}

---

Measured IC50 of individual entries
- Experimental System: UniProtKB Q9NYK1
- Experiment Summary: TLR7 inhibition reporter assay (HEK-Blue cells, SEAP reporter, gardiquimod stimulation)
- Condition Parameters: HEK-Blue cells overexpressing human TLR7, SEAP reporter, gardiquimod 7.5 μM
Structures can show the parent of a compound that is named as a salt.

{"columns": ["Compound", "IC50"],
 "data": [
  ["CC(C)c1c(-c2cc(C(C)C)c3nccn3c2)[nH]c2ccc(C3CCNCC3)cc12", "< 100 nM"],
  ["Cc1c(-c2ccnn3ccnc23)[nH]c2ccc(C3CCN(C4CCN(C(C)C)CC4)CC3)cc12", "1000 to 50000 nM"],
  ["CNC(=O)CN1CCC(c2ccc3[nH]c(-c4ccn5nc(C)cc5c4)c(C(C)C)c3c2)CC1", "100 to 1000 nM"],
  ["Cc1cc(-c2[nH]c3ccc(C4CCN(CC(C)(C)O)CC4)cc3c2C(C)C)cn2nnnc12 [Example 745, TFA]", "< 100 nM"],
  ["Cc1cc(-c2[nH]c3ccc(C4CCNCC4)cc3c2C(C)C)cc2ncnn12", "< 100 nM"],
  ["Cc1cc(-c2[nH]c3ccc(C4CCN(C(=O)CN5[C@@H]6CC[C@H]5COC6)CC4)cc3c2C(C)C)cn2nnnc12", "< 100 nM"],
  ["CCc1c(-c2ccnc3[nH]ncc23)[nH]c2ccc(C3CCNCC3)c(C)c12", "1000 to 50000 nM"],
  ["CC(C)c1c(-c2cnc3ccnn3c2)[nH]c2ccc(C3CCN(Cc4cnn(C)c4)CC3)cc12", "100 to 1000 nM"],
  ["COc1c[nH]c2nccc(-c3[nH]c4ccc(C5CCNCC5)cc4c3C)c12", "1000 to 50000 nM"],
  ["Cc1cc(-c2[nH]c3ccc(C4CCN(C(=O)CN(C)C)CC4)cc3c2C(C)C)c(C)n2nnnc12", "< 100 nM"],
  ["COCCN1CCC(c2ccc3[nH]c(-c4cc(OC)n5ncnc5c4)c(C(C)C)c3c2)CC1", "< 100 nM"],
  ["CC(C)c1c(-c2ccnc3[nH]ncc23)[nH]c2ccc(C3CCN(Cc4ccncc4Cl)CC3)cc12", "100 to 1000 nM"],
  ["FC(F)Cc1c(-c2ccc3nccn3c2)[nH]c2ccc(C3CCN(Cc4c[nH]cn4)CC3)cc12", "100 to 1000 nM"],
  ["CC(C)c1c(-c2ccnc3[nH]ncc23)[nH]c2ccc(C3CCN(Cc4cnccn4)CC3)cc12", "< 100 nM"],
  ["Cc1nc[nH]c1CN1CCC(c2ccc3[nH]c(-c4ccnc5[nH]ncc45)c(C(C)C)c3c2)CC1", "< 100 nM"],
  ["CC(C)c1c(-c2cnc3ccnn3c2)[nH]c2ccc(C3CCN(CC(=O)N(C)C)CC3)cc12", "1000 to 50000 nM"],
  ["Cc1cc2nnnn2cc1-c1[nH]c2ccc(C3CCN(C4CCOCC4)CC3)cc2c1C(C)C", "< 100 nM"],
  ["CC(C)c1c(-c2cnc3ccnn3c2)[nH]c2ccc(C3CCN(C(C)C)CC3)cc12", "1000 to 50000 nM"],
  ["CC(=O)N1CCN(CC(=O)N2CCC(c3ccc4[nH]c(-c5ccnc6[nH]ncc56)c(C(C)C)c4c3)CC2)CC1", "< 100 nM"],
  ["Cc1ccnc2c1c(-c1[nH]c3ccc(C4CCN(C(=O)CN(C)C)CC4)cc3c1C(C)C)cn2C", "< 100 nM"],
  ["CCc1c(-c2ccc3ncc(C)n3n2)[nH]c2ccc(C3CCNCC3)cc12", "1000 to 50000 nM"],
  ["Cc1cn2cc(-c3[nH]c4ccc(C5CCNCC5)cc4c3CC(F)F)ccc2n1", "< 100 nM"],
  ["CC(C)c1c(-c2cc(CO)c3nccn3c2)[nH]c2ccc(C3CCNCC3)cc12", "< 100 nM"],
  ["CCc1c(-c2cnc3[nH]ncc3c2)[nH]c2ccc(C3CCN(C4CCN(C(C)C)CC4)CC3)cc12", "100 to 1000 nM"],
  ["Cc1cc2cc(-c3[nH]c4ccc(C5CCN(CC(=O)N(C)C)CC5)cc4c3C(C)C)cc(C)n2n1", "< 100 nM"],
  ["CC(C)c1c(-c2cn(C)c3ncccc23)[nH]c2ccc(C3CCN(Cc4ncn(C)n4)CC3)cc12", "< 100 nM"],
  ["Cc1cc(-c2[nH]c3ccc(C4CCN(Cc5cnn[nH]5)CC4)cc3c2C(C)C)cn2nnnc12", "< 100 nM"],
  ["CCc1c(-c2ccnc3[nH]ncc23)[nH]c2ccc(C3CCN(Cc4nc(C)oc4C)CC3)cc12", "100 to 1000 nM"],
  ["Cc1cc(-c2[nH]c3ccc(C4CCN(C5COC5)CC4)cc3c2C(C)C)cn2ccnc12", "< 100 nM"],
  ["Cc1c(-c2[nH]c3ccc(C4CCN(CC(C)(C)O)CC4)cc3c2C(C)C)nn2ncnc2c1C", "< 100 nM"],
  ["Cc1ccc(-c2[nH]c3ccc(C4CCN(C(=O)CN(C)C)CC4)cc3c2C(C)C)c2ncnn12", "< 100 nM"]
]}

---

- Experimental System: human TLR9 (Homo sapiens, UniProt Q9NR96)
- Sequence (Q9NR96 26-1032): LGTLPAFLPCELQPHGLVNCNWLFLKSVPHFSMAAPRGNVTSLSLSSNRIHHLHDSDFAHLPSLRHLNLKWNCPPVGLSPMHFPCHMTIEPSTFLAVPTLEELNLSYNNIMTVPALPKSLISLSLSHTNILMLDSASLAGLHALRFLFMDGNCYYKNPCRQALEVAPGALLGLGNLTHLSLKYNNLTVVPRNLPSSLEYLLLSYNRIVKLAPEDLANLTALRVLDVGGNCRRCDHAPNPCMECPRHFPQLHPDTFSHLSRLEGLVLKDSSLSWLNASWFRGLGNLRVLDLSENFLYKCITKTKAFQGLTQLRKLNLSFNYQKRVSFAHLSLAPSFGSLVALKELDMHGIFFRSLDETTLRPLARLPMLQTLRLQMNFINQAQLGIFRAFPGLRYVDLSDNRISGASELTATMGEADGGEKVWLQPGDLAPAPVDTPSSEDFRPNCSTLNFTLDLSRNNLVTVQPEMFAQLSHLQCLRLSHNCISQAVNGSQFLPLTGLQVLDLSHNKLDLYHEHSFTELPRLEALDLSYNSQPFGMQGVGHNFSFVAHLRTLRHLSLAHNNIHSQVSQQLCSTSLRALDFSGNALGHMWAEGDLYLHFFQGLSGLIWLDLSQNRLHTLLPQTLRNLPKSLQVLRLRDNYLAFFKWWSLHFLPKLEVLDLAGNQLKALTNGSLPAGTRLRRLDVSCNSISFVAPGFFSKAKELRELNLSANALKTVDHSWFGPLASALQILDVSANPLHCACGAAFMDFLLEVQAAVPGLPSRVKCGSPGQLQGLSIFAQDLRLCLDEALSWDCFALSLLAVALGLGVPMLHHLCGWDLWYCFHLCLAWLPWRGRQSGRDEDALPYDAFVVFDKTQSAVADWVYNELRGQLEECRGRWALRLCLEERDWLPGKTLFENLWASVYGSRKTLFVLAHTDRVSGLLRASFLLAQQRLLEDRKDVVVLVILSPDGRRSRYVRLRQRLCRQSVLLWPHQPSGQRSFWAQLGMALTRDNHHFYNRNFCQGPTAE
- Experiment Summary: TLR9 inhibition reporter assay (HEK-Blue cells, SEAP reporter, ODN2006 stimulation)
- Condition Parameters: HEK-Blue cells overexpressing human TLR9, SEAP reporter, ODN2006 5 nM
pIC50: −log10 of the molar value.
Readout Kind: pIC50

{"columns": ["Compound", "Readout Kind", "Reported"],
 "data": [
  ["Cc1cc(-c2[nH]c3ccc(C4CCNCC4)cc3c2C(C)C)cn2nncc12", "pIC50", "4.30 to 6.00"],
  ["COc1ccc2nc(Cl)c(CN3CCC(c4ccc5[nH]c(-c6ccnc7[nH]ncc67)c(C(C)C)c5c4)CC3)cc2c1", "pIC50", "< 4.30"],
  ["COc1cc(-c2[nH]c3ccc(C4CCN(CC(C)(C)O)CC4)cc3c2C(C)C)cn2ccnc12", "pIC50", "6.00 to 7.00"],
  ["Cc1cc(-c2[nH]c3ccc(C4CCN(CC(=O)N(C)C)CC4)cc3c2C(C)C)cn2cc(C(=O)N(C)CCO)nc12", "pIC50", "4.30 to 6.00"],
  ["CC1CC(N2CCC(c3ccc4[nH]c(-c5ccnc6[nH]ncc56)c(C(C)C)c4c3)CC2)CCN1 (centres unmarked)", "pIC50", "> 7.00"],
  ["CNC(=O)CN1CCC(c2ccc3[nH]c(-c4cc(C)c5oc(=O)[nH]c5c4)c(C(C)C)c3c2)CC1", "pIC50", "4.30 to 6.00"],
  ["CCc1c(-c2cnc3ncnn3c2)[nH]c2ccc(C3CCNCC3)cc12", "pIC50", "6.00 to 7.00"],
  ["COCCN1CCC(c2ccc3[nH]c(-c4cc(C)n5ncnc5c4)c(C(C)C)c3c2)CC1", "pIC50", "4.30 to 6.00"]
]}

---

- Experimental System: human TLR9 (Homo sapiens)
- Experiment Summary: TLR9 inhibition reporter assay (HEK-Blue cells, SEAP reporter, ODN2006 stimulation)
- Condition Parameters: HEK-Blue cells overexpressing human TLR9, SEAP reporter, ODN2006 5 nM
Measured IC50 of individual entries

{"columns": ["Compound", "IC50"],
 "data": [
  ["Cc1cn2cc(-c3[nH]c4ccc(C5CCNCC5)cc4c3C(C)C)cc(F)c2n1", "100 to 1000 nM"],
  ["Cc1cc(-c2[nH]c3ccc(C4CCNCC4)cc3c2C(C)C)cc2c1oc(=O)n2C", "1000 to 50000 nM"],
  ["Cc1cc(-c2[nH]c3ccc(C4CCN(C(=O)CCN5CCC(F)CC5)CC4)cc3c2C(C)C)cn2nnnc12", "1000 to 50000 nM"],
  ["CC(C)c1c(-c2ccnc3[nH]ncc23)[nH]c2ccc(C3CCNCC3)c(F)c12", "100 to 1000 nM"],
  ["CCc1c(-c2ccnc3[nH]ncc23)[nH]c2ccc(C3CCNCC3O)cc12 (stereo not shown)", "1000 to 50000 nM"],
  ["CNC(=O)c1cn2cc(-c3[nH]c4ccc(C5CCNCC5)cc4c3C(C)C)cc(C)c2n1", "100 to 1000 nM"],
  ["Cc1cc(-c2[nH]c3ccc(C4CCN(C5COC5)CC4)cc3c2C(C)C)cn2nnnc12", "1000 to 50000 nM"],
  ["CNCC(=O)N1CCC(c2ccc3[nH]c(-c4cc(C)c5ncccc5c4)c(C(C)C)c3c2)CC1", "1000 to 50000 nM"],
  ["CCOc1cc(-c2[nH]c3ccc(C4CCNCC4)cc3c2C(C)C)cc2ncnn12", "100 to 1000 nM"],
  ["CCCN1CCC(c2ccc3[nH]c(-c4ccc5c(c4)COC5=O)c(C(C)C)c3c2)CC1", "1000 to 50000 nM"],
  ["Cc1cc(-c2[nH]c3ccc(C4CCN(C(=O)CN(C)C)CC4)cc3c2C(C)C)cc2ccnn12", "1000 to 50000 nM"],
  ["CNC(=O)CN1CCC(c2ccc3[nH]c(-c4cc(C(F)(F)F)c5nccn5c4)c(C(C)C)c3c2)CC1", "1000 to 50000 nM"],
  ["CC(C)c1c(-c2cn(C)c3ncccc23)[nH]c2ccc(C3CCN(CC(N)=O)CC3)cc12", "1000 to 50000 nM"],
  ["CC(C)c1c(-c2cnc3[nH]ccc3c2)[nH]c2ccc(C3CCN(C(=O)CN(C)C)CC3)cc12", "1000 to 50000 nM"],
  ["CC(C)c1c(-c2ccc3nnnn3c2)[nH]c2ccc(C3CCNCC3)cc12", "1000 to 50000 nM"],
  ["CCc1c(C)c(-c2[nH]c3ccc(C4CCN(CC(C)(C)O)CC4)cc3c2C(C)C)cn2ccnc12", "100 to 1000 nM"]
]}
